System: PXR:RXRa (NR concentration 270 nM, RXRa partner concentration 90 nM)
Test: PBM binding z-score (relative to random genomic background probes); higher = stronger binding; sequences stand for … in GC…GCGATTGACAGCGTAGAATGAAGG
Threshold check on PBM binding z-score: at or above 2 gives class 1, strictly below gives class 0.

• AGAATGAGGTTATACGTAGATCAGGGTAGAAAGT = class 0
• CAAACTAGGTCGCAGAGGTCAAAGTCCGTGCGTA = class 1
• CCGACTGGGGCAAAAAGGTTACCATACCATCCGG = class 0
• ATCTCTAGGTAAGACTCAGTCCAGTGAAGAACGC = class 0
• TGTCAAAGTTCAAAGGTAAAGTAAGTATCCACAC = class 1
• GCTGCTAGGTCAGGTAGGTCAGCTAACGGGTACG = class 0
• AATACAGGGTCACTAGGCCATAGTAGGTACGAAT = class 1
• CCGACTGGGGCGGAAAGGTTACCATACCATCCGG = class 0
• TAGGCTAGGTCATTGGGCCAGTATAGTACGCATC = class 0
• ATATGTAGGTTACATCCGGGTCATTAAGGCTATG = class 1
• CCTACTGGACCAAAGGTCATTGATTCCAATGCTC = class 1
• TAACCTAGGTCATTGGGCCAGTATAGTACGCATC = class 1
• AGAATGAGGTTATACCTAGATCAGGGAAGAAAGT = class 0
• TCTTGTAGTTCAGCAGGTTAAGAAAGCTGGCCAA = class 0
• TAGCCAAGGTCATTGGGCCAGTATAGTACGCATC = class 1
• TCATATAGGTAACAGGTGAAAGTCGGTGTGGTAA = class 0
• AGTCAAAGTTCATCTAGGTAAGGTAAGATATGCT = class 1
• AGCTCTAGGTAAGACTCAGTTCAGTGAAGAACGC = class 0
